Test system: SF-295 CNS
Test: NCI-60 one-dose screen, 48 h (100 = growth as untreated, 0 = no growth, -100 = all killed)
Settings: 10 µM
Protocol: Cells are grown in 96 well plates and exposed to the test compound for 48 hours. Compounds are tested at a single concentration, which is 10^-5 M for most compounds. The reported endpoint is percent growth (GI% or GIPRCNT), where numbers from 0 - 100% represent growth inhibition, and numbers from -100% - 0 represent cell death. For example, a value of 40 represents 60% growth inhibition. A value of 0 means no net growth occurred over the course of the experiment. […]
The panel holds about 83,000 compounds, 20% with a hit somewhere; the sample as a whole holds those more often.
assay_readout: growth (%)
Note: unit % is implicit; provide only the numeric part.

Please review the entries below; each comes with its answer.
molecule: Cn1c(N)c(N=Nc2ccc(S(=O)(=O)Nc3nccs3)cc2)c(=O)n(C)c1=O
system_name: SF-295 CNS
unit_symbol: %
growth: 91
//
molecule: N=C(N)c1ccc(-c2ccc(-c3cccs3)o2)cc1
system_name: SF-295 CNS
unit_symbol: %
growth: -52.3
//
molecule: CCCC(F)C(=O)O (stereo unspecified)
system_name: SF-295 CNS
unit_symbol: %
growth: 83.5
//
molecule: COc1ccc(OC)c2c1C(=O)CC2C (stereo unspecified)
system_name: SF-295 CNS
unit_symbol: %
growth: 98
//
molecule: CN(C)N=Nc1nn(C(=O)Nc2ccc(Cc3ccccc3)cc2)c2ccccc12
system_name: SF-295 CNS
unit_symbol: %
growth: 9.64
//
molecule: CCCCOC(=O)Oc1ccc(C(=O)Oc2ccc(OCC)cc2)cc1
system_name: SF-295 CNS
unit_symbol: %
growth: 109

Data request: Looking for the measured growth of `COc1cc(Cl)cc(-c2nn(-c3cccc(NC(=O)c4ccc(N5CCOCC5)c(C(F)(F)F)c4)c3)cc2-c2ccncc2)c1` , can you help?
Data returned: 2.6

---

System: OVCAR-5 ovarian
Assay: NCI-60 one-dose screen, 48 h (100 = growth as untreated, 0 = no growth, -100 = all killed)
Settings: 10 µM
The panel holds about 83,000 compounds, 20% with a hit somewhere; the sample as a whole holds those more often.
assay_readout: growth (%)
Enter your answer as a number in %; do not include the unit.

Past entries and their recorded results:
molecule: Cc1ccc(NC(=O)NC2CCCCC2)cc1
assay_readout: growth
unit_symbol: %
quantitative_readout: 103
--
molecule: O=C(Nc1ccc(Cl)c(Cl)c1)Nc1c(Oc2ccc(Cl)c(Cl)c2)ccc(Cl)c1S(=O)(=O)O
assay_readout: growth
unit_symbol: %
quantitative_readout: 53.7

Data request: Give growth (OVCAR-5 ovarian) of the following molecule: `CCCCCCNC(=O)Oc1ccc(/C(=C(/CC)Cc2ccccc2)c2ccc(OCCN3CCCCC3)cc2)cc1`
Data returned: 94

Data request: API: value(readout= growth, system= OVCAR-5 ovarian, query= COc1ccc(OC)c2c1C(=O)CC2C (stereo not given) )
Data returned: 112

Data request: Item: CCOC(=O)C1CCc2c(ccc3ccccc23)N1CCC#N (stereo not given) Test system: OVCAR-5 ovarian Read-out: growth Value: ?
Data returned: 107

Data request: OVCAR-5 ovarian / growth / `COc1ccc(-c2nn(-c3cccc(NC(=O)Nc4cccc(C(F)(F)F)c4)c3)cc2-c2ccncc2)cc1Cl` : value?
Data returned: 56.1

Data request: Any idea what growth came out for COc1cccc(C2C3=C(COC3=O)N(CCO)c3cc(OC)ccc32)c1 (stereo not given) on OVCAR-5 ovarian?
Data returned: 27.5

Data request: growth of CCOCC(=O)C(C#N)c1ccc(Cl)c(Cl)c1 (stereo not given) on OVCAR-5 ovarian?
Data returned: 96.6

Data request: Recall the recorded growth for `CC/C(=C(/c1ccc(OCCN(C)C)cc1)c1ccc(OC(=O)CCCCCCCCC(=O)c2c(C)[nH]c(/C=C3\N=C(c4ccc[nH]4)C=C3OC)c2C)cc1)c1ccccc1` with OVCAR-5 ovarian and state it.
Data returned: 103

Data request: Request body: readout growth, system OVCAR-5 ovarian, query `Cc1ncc(-c2ccoc2)c(NC2CCCCCC2)n1` . Return the value.
Data returned: 107
